target_of_assay: β-catenin/BCL9 PPI (Homo sapiens (Human))
experiment_summary: AlphaScreen competitive inhibition assay, wild-type β-catenin/BCL9 PPI
run_conditions: wild-type β-catenin/BCL9 PPI, AlphaScreen competitive inhibition, mean ± SD (n=3)
Structures can show the parent of a compound that is named as a salt.
Could you please mark criterion met for values of Ki below 70 µM and criterion not met for values at or above it?

Examples from the recorded data:
Asked: # TODO verify Ki < 70 µM strictly for this molecule: CC(C)C[C@H]1CN(C(=O)c2cc(F)cc(N3CCNCC3)c2)CCN1C(=O)c1ccc(O[C@H]2CCNC2)c(-c2ccc(F)cc2)c1
Given back: criterion met

Asked: Regarding Cl.Cl.NCCc1cc(F)cc(C(=O)N2CCN(C(=O)c3cnc(O[C@H]4CCNC4)c(-c4ccc(F)cc4)c3)CC2)c1 [Compound 4, hydrochloride] , kindly confirm whether its Ki is beneath 70 µM.
Given back: criterion not met

Asked: Just wondering, is Ki of Cl.Cl.O=C(c1cc(F)cc(N2CCNCC2)c1)N1CCN(C(=O)c2cnc(O[C@H]3CCNC3)c(-c3ccc(F)cc3)c2)CC1 [Compound 3, hydrochloride] below 70 µM?
Given back: criterion not met

Asked: Problem: For the molecule O=C(c1cc(F)cc(N2CCNCC2)c1)N1CCN(C(=O)c2ccc(O[C@H]3CCNC3)c(C3CCC(F)(F)CC3)c2)CC1 [Compound 16, hydrochloride] , is Ki under 70 µM?
Given back: criterion met

---
Asked: Consider O=C(c1cc(Cl)cc(N2CCNCC2)c1)N1CCN(C(=O)c2ccc(O[C@H]3CCNC3)c(C3CCCCC3)c2)CC1 [Compound 18, hydrochloride] . Does its Ki lie strictly below 70 µM?
Given back: criterion not met

Asked: Report whether reported Ki is lower than 70 µM (strictly) for NCCc1cc(F)cc(C(=O)N2CCN(C(=O)c3ccc(O[C@H]4CCNC4)c(-c4ccc(F)cc4)c3)CC2)c1 [Compound 5, hydrochloride]
Given back: criterion met

----------
Tested on: SW480 cells
experiment_summary: MTS cell viability assay, SW480
Assay type: cell-based
run_conditions: Homo sapiens; SW480 colorectal cancer cells, MTS, 72 h; read-out: IC50 ± SD
Where a name gives a salt, the structure may show the parent alone.
experimental_readout: pIC50
Just the number, please; pIC50 means minus log10 of the concentration in mol/L.

Asked: Identify measured pIC50 associated with O=C(c1cc(F)cc(N2CCNCC2)c1)N1CCN(C(=O)c2ccc(O[C@H]3CCNC3)c(-c3ccc(F)cc3)c2)CC1 [Compound 2, hydrochloride]
Given back: 4.07

----------
target_of_assay: β-catenin/BCL9 PPI (Homo sapiens (Human))
experiment_summary: AlphaScreen competitive inhibition assay, wild-type β-catenin/BCL9 PPI
run_conditions: wild-type β-catenin/BCL9 PPI, AlphaScreen competitive inhibition, mean ± SD (n=3)
Structures can show the parent of a compound that is named as a salt.
Each entry below lists one item and its recorded pKi value.
The quantity pKi is defined as the negative base-10 logarithm of the molar concentration.

Asked: Give the reported value of pKi for this record: Cl.Cl.O=C(c1cc(F)cc(N2CCNCC2)c1)N1CCN(C(=O)c2ccc(O[C@H]3CCNC3)c(C3CCCCC3)c2)CC1 [Compound 10, hydrochloride]
Given back: 5.28

Asked: Fill in reported pKi for this entry: O=C(c1cc(F)cc(O[C@@H]2CCNC2)c1)N1CCN(C(=O)c2ccc(O[C@H]3CCNC3)c(-c3ccc(F)cc3)c2)CC1 [Compound 7, hydrochloride]
Given back: 4.46

Asked: Check the records and state pKi for Cc1cc(C(=O)N2CCN(C(=O)c3ccc(O[C@H]4CCNC4)c(C4CCCCC4)c3)CC2)cc(N2CCNCC2)c1 [Compound 19, hydrochloride]
Given back: 4.60

Asked: Report pKi for O=C(c1cc(F)cc(C2CCNCC2)c1)N1CCN(C(=O)c2ccc(O[C@H]3CCNC3)c(-c3ccc(F)cc3)c2)CC1 [Compound 8, hydrochloride]
Given back: 4.70

Asked: Identify measured pKi associated with C[C@H]1CN(C(=O)c2cc(F)cc(N3CCNCC3)c2)CCN1C(=O)c1ccc(O[C@H]2CCNC2)c(-c2ccc(F)cc2)c1
Given back: 3.96

Others:
Asked: Indicate its recorded pKi; the compound in question is O=C(c1cc(F)cc(N2CCNCC2)c1)N1CCN(C(=O)c2ccc(O[C@H]3CCNC3)c(-c3ccc(F)cc3)c2)CC1 [Compound 2, hydrochloride]
Given back: 4.72

Asked: Entry Cc1cc(C(=O)N2CCN(C(=O)c3cc(F)cc(N4CCNCC4)c3)CC2)ccc1O[C@H]1CCNC1 [Compound 17, hydrochloride] needs its pKi filled in; supply it.
Given back: 3.31

----------
target_of_assay: β-catenin/BCL9 PPI (Homo sapiens (Human), UniProt P35222)
Sequence (P35222 138-686): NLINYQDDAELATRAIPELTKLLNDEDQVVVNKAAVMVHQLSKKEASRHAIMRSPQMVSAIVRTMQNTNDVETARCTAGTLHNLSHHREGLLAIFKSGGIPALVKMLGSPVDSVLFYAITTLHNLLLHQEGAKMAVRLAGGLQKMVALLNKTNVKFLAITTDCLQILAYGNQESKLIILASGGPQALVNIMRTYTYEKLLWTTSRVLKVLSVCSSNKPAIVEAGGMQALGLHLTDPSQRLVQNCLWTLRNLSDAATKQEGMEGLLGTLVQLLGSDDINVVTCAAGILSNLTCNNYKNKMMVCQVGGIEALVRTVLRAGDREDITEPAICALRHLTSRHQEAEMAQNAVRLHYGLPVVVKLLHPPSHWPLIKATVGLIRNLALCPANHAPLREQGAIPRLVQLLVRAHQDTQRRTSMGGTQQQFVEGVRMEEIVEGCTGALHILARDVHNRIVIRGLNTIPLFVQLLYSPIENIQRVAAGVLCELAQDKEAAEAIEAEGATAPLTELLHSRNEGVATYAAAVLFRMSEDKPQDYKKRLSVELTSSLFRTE
experiment_summary: AlphaScreen competitive inhibition assay, wild-type β-catenin/BCL9 PPI
run_conditions: wild-type β-catenin/BCL9 PPI, AlphaScreen competitive inhibition, mean ± SD (n=3)
Where a name gives a salt, the structure may show the parent alone.
experimental_readout: pKi
pKi here is simply -log10 of the concentration when that concentration is written in mol/L.

Consider the worked cases shown below.
Asked: Give measured pKi for CC[C@H]1CN(C(=O)c2cc(F)cc(N3CCNCC3)c2)CCN1C(=O)c1ccc(O[C@H]2CCNC2)c(-c2ccc(F)cc2)c1 [Compound 63] (β-catenin/BCL9 PPI (Homo sapiens (Human), UniProt P35222)).
Given back: 5.00

Asked: Using β-catenin/BCL9 PPI (Homo sapiens (Human), UniProt P35222) as the test system, report measured pKi of O=C(c1cc(F)cc(O[C@H]2CCNC2)c1)N1CCN(C(=O)c2ccc(O[C@H]3CCNC3)c(-c3ccc(F)cc3)c2)CC1 [Compound 6, hydrochloride] .
Given back: 4.32

Asked: Under β-catenin/BCL9 PPI (Homo sapiens (Human), UniProt P35222): report pKi of O=C(c1cc(N2CCNCC2)cc(C(F)(F)F)c1)N1CCN(C(=O)c2ccc(O[C@H]3CCNC3)c(C3CCCCC3)c2)CC1 [Compound 20, hydrochloride] .
Given back: 4.16

Asked: Provide measured pKi on β-catenin/BCL9 PPI (Homo sapiens (Human), UniProt P35222) for CC(C)[C@H]1CN(C(=O)c2cc(F)cc(N3CCNCC3)c2)CCN1C(=O)c1ccc(O[C@H]2CCNC2)c(-c2ccc(F)cc2)c1 [Compound 64] please.
Given back: 4.35

Asked: Answer briefly: pKi recorded on β-catenin/BCL9 PPI (Homo sapiens (Human), UniProt P35222) for O=C(c1cc(Br)cc(N2CCNCC2)c1)N1CCN(C(=O)c2ccc(O[C@H]3CCNC3)c(C3CCCCC3)c2)CC1 [Compound 21, hydrochloride]
Given back: 4.26

Asked: Write down the reported pKi (system: β-catenin/BCL9 PPI (Homo sapiens (Human), UniProt P35222)) of NCCOc1ccc(C(N)=O)cc1-c1ccc(F)cc1 [Compound 1]
Given back: 3.89

Asked: Answer with pKi of CC1(C)CCC(c2cc(C(=O)N3CCN(C(=O)c4cc(F)cc(N5CCNCC5)c4)CC3)ccc2O[C@H]2CCNC2)CC1 [Compound 15, hydrochloride] measured for β-catenin/BCL9 PPI (Homo sapiens (Human), UniProt P35222).
Given back: 4.35

Asked: Supply pKi measured with β-catenin/BCL9 PPI (Homo sapiens (Human), UniProt P35222) for Cl.Cl.O=C(c1cc(F)cc(N2CCNCC2)c1)N1CCN(C(=O)c2ccc(O[C@H]3CCNC3)c(-c3ccc(F)c(F)c3)c2)CC1 [Compound 9, hydrochloride] .
Given back: 4.24

***
Asked: State pKi (β-catenin/BCL9 PPI (Homo sapiens (Human), UniProt P35222)) of O=C(c1cc(F)cc(N2CCNCC2)c1)N1CCN(C(=O)c2ccc(O[C@H]3CCNC3)c(C3CCCC3)c2)CC1 [Compound 11, hydrochloride] .
Given back: 4.43

Asked: Return reported pKi for target or system β-catenin/BCL9 PPI (Homo sapiens (Human), UniProt P35222), item O=C(c1cc(F)cc(N2CCNCC2=O)c1)N1CCN(C(=O)c2ccc(O[C@H]3CCNC3)c(C3CCCCC3)c2)CC1 [Compound 75, hydrochloride] .
Given back: 4.41

Asked: Supply pKi measured with β-catenin/BCL9 PPI (Homo sapiens (Human), UniProt P35222) for O=C(c1cc(F)cc(N2CCNCC2)c1)N1CCN(C(=O)c2ccc(O[C@H]3CCNC3)c(C3CCC(C(F)(F)F)CC3)c2)CC1 (stereo partly drawn) [Compound 13, hydrochloride] .
Given back: 3.77

Asked: Quote β-catenin/BCL9 PPI (Homo sapiens (Human), UniProt P35222) pKi for entry O=C(c1cc(F)cc(N2CCNCC2=O)c1)N1CCN(C(=O)c2ccc(O[C@H]3CCNC3)c(C3CCC(C(F)(F)F)CC3)c2)CC1 (stereo partly drawn) [Compound 76, hydrochloride] .
Given back: 4.85
